- assayed_system: human parathyroid cell Ca2+ receptor (hPCaR) (Homo sapiens, UniProt P41180)
- assay_overview: [Ca2+]i fluorescence assay in HEK 293 4.0-7 cells expressing hPCaR
- run_parameters: buffer with 1 mM CaCl2
pEC50: −log10 of the molar value.
Reported pEC50 values for the following compounds.
property: pEC50

INSERT INTO assay_data (compound, test_result) VALUES
  ('CCNC(=O)CCCN(CCC(c1ccccc1)c1ccccc1)C(=O)Nc1nc2ccccc2s1 [Example 85]', '> 7.00'),
  ('O=C(CCCN(CCC(c1ccccc1)c1ccccc1)C(=O)Nc1nc2ccccc2s1)N1CCNCC1 [Example 82]', '> 7.00'),
  ('C[C@H]1CNCCN1C(=O)CCCN(CCC(c1ccccc1)c1ccccc1)C(=O)Nc1nc(-c2ccccc2)cs1 [Example 100]', '6.00 to 7.00'),
  ('NC(=O)CCN(CCC(c1ccccc1)c1ccccc1)C(=O)Nc1nc2ccccc2s1 [Example 109]', '6.00 to 7.00'),
  ('CC(=O)N1CCN(C(=O)CCCN(CCC(c2ccccc2)c2ccccc2)C(=O)Nc2nc(-c3ccccc3)cs2)CC1 [Example 84]', '> 7.00'),
  ('CSCCCN(CCC(c1ccccc1)c1ccccc1)C(=O)Nc1nc(-c2ccc(NS(C)(=O)=O)cc2)c(Cl)s1 [Example 138]', '> 7.00'),
  ('CS(=O)(=O)Nc1ccc(-c2nc(NC(=O)NCCC(c3ccccc3)c3ccccc3)sc2Cl)cc1 [Example 176]', '6.00 to 7.00'),
  ('O=C(NCCN(CCC(c1ccccc1)c1ccccc1)C(=O)Nc1nc2ccccc2s1)C1CCCNC1 (centres unmarked) [Example 129]', '> 7.00');

----------
Reported EC50 values for the following compounds.
- assayed_system: human parathyroid cell Ca2+ receptor (hPCaR) (Homo sapiens, UniProt P41180)
- Sequence (P41180 20-1078): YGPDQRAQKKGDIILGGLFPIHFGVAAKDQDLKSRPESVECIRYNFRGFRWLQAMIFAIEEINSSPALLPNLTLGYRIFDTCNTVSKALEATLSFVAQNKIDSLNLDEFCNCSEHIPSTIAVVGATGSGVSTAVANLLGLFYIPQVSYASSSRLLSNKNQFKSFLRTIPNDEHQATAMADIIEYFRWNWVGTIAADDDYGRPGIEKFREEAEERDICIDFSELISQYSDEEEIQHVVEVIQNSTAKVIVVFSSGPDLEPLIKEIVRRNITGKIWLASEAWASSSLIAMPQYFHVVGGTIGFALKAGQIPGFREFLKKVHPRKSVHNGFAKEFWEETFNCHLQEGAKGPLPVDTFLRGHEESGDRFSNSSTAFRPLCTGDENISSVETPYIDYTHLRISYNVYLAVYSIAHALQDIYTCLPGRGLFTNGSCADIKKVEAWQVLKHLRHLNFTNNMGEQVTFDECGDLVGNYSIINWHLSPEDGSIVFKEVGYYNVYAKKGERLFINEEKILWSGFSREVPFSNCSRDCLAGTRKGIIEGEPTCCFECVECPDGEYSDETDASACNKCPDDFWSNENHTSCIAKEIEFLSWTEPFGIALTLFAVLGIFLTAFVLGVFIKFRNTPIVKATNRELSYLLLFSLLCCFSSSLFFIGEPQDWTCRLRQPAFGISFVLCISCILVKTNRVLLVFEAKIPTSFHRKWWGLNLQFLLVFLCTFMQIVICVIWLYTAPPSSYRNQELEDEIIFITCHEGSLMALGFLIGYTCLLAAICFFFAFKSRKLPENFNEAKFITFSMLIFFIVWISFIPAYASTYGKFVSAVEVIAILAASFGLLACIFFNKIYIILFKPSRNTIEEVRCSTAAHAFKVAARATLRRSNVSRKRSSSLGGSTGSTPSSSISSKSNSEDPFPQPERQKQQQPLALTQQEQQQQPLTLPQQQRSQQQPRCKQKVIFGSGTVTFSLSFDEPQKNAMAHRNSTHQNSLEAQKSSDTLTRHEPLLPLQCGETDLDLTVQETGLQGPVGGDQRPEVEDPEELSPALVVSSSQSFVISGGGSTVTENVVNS
- assay_overview: [Ca2+]i fluorescence assay in HEK 293 4.0-7 cells expressing hPCaR
- run_parameters: buffer with 1 mM CaCl2
- Method: The activities of the compounds of the present invention on calcium receptors were measured. […] A 4.0-kb NotI-HindIII fragment of the human parathyroid cell Ca^2+ receptor (hPCaR) cDNA was subcloned into the mammalian expression vector pCEP4 (Invitrogen) containing the hygromycin-resistant gene as a selectable marker. […] Each test compound was added to the cells and the fluorescence was recorded by using excitation and emission wavelengths of 485 and 530 nm, respectively.
property: EC50

INSERT INTO measurements (compound, property, test_result) VALUES
  ('CC(C)(C)OC(=O)CN1CCC(NCCN(CCC(c2ccccc2)c2ccccc2)C(=O)Nc2nc3ccccc3s2)CC1 [Example 158]', 'EC50', '100 to 1000 nM'),
  ('O=C(CCCN(CCC(c1ccccc1)c1ccccc1)C(=O)Nc1nc(-c2ccccc2)cs1)N[C@@H]1CCCNC1 [Example 76]', 'EC50', '< 100 nM'),
  ('O=C(Nc1nc2ccccc2s1)N(CCNC1CCSCC1)CCC(c1ccccc1)c1ccccc1 [Example 155]', 'EC50', '1000 to 5000 nM'),
  ('O=C(Nc1nc2ccccc2s1)N(CCO)CCC(c1ccccc1)c1ccccc1 [Example 175]', 'EC50', '100 to 1000 nM'),
  ('CC(C)(C)OC(=O)N1CCC(C(=O)NCCN(CCC(c2ccccc2)c2ccccc2)C(=O)Nc2nc3ccccc3s2)CC1 [Example 165]', 'EC50', '100 to 1000 nM'),
  ('C[C@H]1CN(C(=O)CCN(CCC(c2ccccc2)c2ccccc2)C(=O)Nc2nc3ccccc3s2)CCN1 [Example 115]', 'EC50', '100 to 1000 nM'),
  ('CC(C)N1CCN(C(=O)CCCN(CCC(c2ccccc2)c2ccccc2)C(=O)Nc2nc3ccccc3s2)CC1 [Example 118]', 'EC50', '100 to 1000 nM'),
  ('CC1OCCC1NCCN(CCC(c1ccccc1)c1ccccc1)C(=O)Nc1nc2ccccc2s1 (stereo not drawn) [Example 157]', 'EC50', '< 100 nM'),
  ('CSCCN(CCC(c1ccccc1)c1ccccc1)C(=O)Nc1nc(-c2ccc(NS(C)(=O)=O)cc2)c(Cl)s1 [Example 137]', 'EC50', '< 100 nM'),
  ('C[C@@H]1CNCCN1C(=O)CCN(CCC(c1ccccc1)c1ccccc1)C(=O)Nc1nc2ccccc2s1 [Example 120]', 'EC50', '1000 to 5000 nM'),
  ('CS(=O)(=O)Nc1ccc(-c2csc(NC(=O)N(CCCC(=O)N[C@@H]3CCCNC3)CCC(c3ccccc3)c3ccccc3)n2)cc1 [Example 67]', 'EC50', '< 100 nM'),
  ('CC(=O)Nc1ccc(S(=O)(=O)NCCN(CCC(c2ccccc2)c2ccccc2)C(=O)Nc2nc3ccccc3s2)cc1 [Example 170]', 'EC50', '100 to 1000 nM'),
  ('O=C1CC[C@H](NCCN(CCC(c2ccccc2)c2ccccc2)C(=O)Nc2nc(-c3ccccc3)c(Cl)s2)CN1 [Example 142]', 'EC50', '< 100 nM'),
  ('O=C(CCN(CCC(c1ccccc1)c1ccccc1)C(=O)Nc1nc2ccccc2s1)N1CCNCC1 [Example 106]', 'EC50', '100 to 1000 nM'),
  ('N#Cc1ccc(-c2nc(NC(=O)N(CCCC(=O)O)CCC(c3ccccc3)c3ccccc3)sc2Cl)cc1 [Example 92]', 'EC50', '100 to 1000 nM');
